# method-summary: Pharmacokinetics of plasmatic oxytocin after intravenous, nasal spray or nebulizer administration
# condition-label: Condition IV; Sample 8; individual participants (Fig6A source data)
value-kind: Concentration (plasma oxytocin) (pg/mL)
Hi! Could you send only the number? It should be in pg/mL, unit omitted.

Entry under test: CC[C@H](C)[C@@H]1NC(=O)[C@H](Cc2ccc(O)cc2)NC(=O)[C@@H](N)CSSC[C@@H](C(=O)N2CCC[C@H]2C(=O)N[C@@H](CC(C)C)C(=O)NCC(N)=O)NC(=O)[C@H](CC(N)=O)NC(=O)[C@H](CCC(N)=O)NC1=O . Its Concentration (plasma oxytocin) was 3.77

Source of measurements: paper PMC8971402
